Answer each item with its documented Emax.
# testSystem: 5-hydroxytryptamine receptor 4 (Homo sapiens, UniProt Q13639)
# Sequence (Q13639 whole entry, canonical isoform): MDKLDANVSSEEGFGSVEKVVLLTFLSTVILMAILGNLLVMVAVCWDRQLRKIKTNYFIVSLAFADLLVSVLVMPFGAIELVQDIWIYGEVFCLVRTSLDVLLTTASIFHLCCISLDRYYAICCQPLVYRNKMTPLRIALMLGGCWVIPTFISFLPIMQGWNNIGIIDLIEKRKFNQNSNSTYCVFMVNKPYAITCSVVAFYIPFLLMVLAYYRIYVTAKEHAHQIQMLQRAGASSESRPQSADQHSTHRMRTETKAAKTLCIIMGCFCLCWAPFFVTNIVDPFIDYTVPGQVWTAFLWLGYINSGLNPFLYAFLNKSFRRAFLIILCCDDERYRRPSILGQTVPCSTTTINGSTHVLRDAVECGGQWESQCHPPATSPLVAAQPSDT
# testDetails: Agonist activity at human 5HT4 isoform E receptor expressed in rat C6 cells assessed as cAMP accumulation at 10 nM by radio-immunoassay relative to 5HT
# Format: functional, cell-based
The figure you give is taken to be in %; do not add the unit.

Query (compound): "COc1cc(N)c(Cl)cc1C(=O)OCCN1CCC(NC(=O)CCCc2ccccc2)CC1" ; field requested: Emax
20

Query (compound): "COc1cc(N)c(Cl)cc1C(=O)OCCN1CCC(NC(=O)c2ccsc2)CC1" ; field requested: Emax
20

Query (compound): "COc1cc(N)c(Cl)cc1C(=O)OCCN1CCC(NC(=O)CCCNCCCc2ccccc2)CC1" ; field requested: Emax
50

Query (compound): "COc1cc(N)c(Cl)cc1C(=O)OCCN1CCC(CNC(=O)c2ccsc2)CC1" ; field requested: Emax
0

Query (compound): "COc1cc(N)c(Cl)cc1C(=O)OCCN1CCC(CNC(=O)Cc2ccc(Br)cc2)CC1" ; field requested: Emax
0

Query (compound): "COc1cc(N)c(Cl)cc1C(=O)OCCN1CCC(NC(=O)CCc2cccs2)CC1" ; field requested: Emax
10

Query (compound): "COc1cc(N)c(Cl)cc1C(=O)OCCN1CCCCC1" ; field requested: Emax
45

Query (compound): "COc1cc(N)c(Cl)cc1C(=O)OCCN1CCC(CNC(=O)CC(C)C)CC1" ; field requested: Emax
40
